Measured melting point of individual entries

Data request: Let me know recorded melting point for COC(=O)C1=NN(c2ccc(S(C)(=O)=O)cc2)C(c2ccc(C)cc2)C1 (stereo not drawn) [Example 39] , thanks.
Data returned: 155 to 160 °C

Data request: Using known records, supply melting point for CC1(c2ccccc2)CC(C(F)(F)F)=NN1c1ccc(S(N)(=O)=O)cc1 (stereo not drawn)
Data returned: 60 to 66 °C

Data request: Tell us which melting point value is on record for Cc1ccc(C2CC(C(N)=O)=NN2c2ccc(S(N)(=O)=O)cc2)cc1 (stereo not drawn) [Example 6]
Data returned: 137 to 140 °C

Data request: Look up and report measured melting point for this entry: Cc1ccc(C2CC(C(N)=O)=NN2c2ccc(S(C)(=O)=O)cc2)cc1 (stereo not drawn)
Data returned: 128 to 132 °C

Data request: // Input: COC(=O)C1=NN(c2ccc(S(C)(=O)=O)cc2)C(c2ccc(C)cc2)C1 (stereo not drawn) [Example 5] . Output its melting point only.
Data returned: 156 to 157 °C

---
Data request: Give the value of melting point reported for the following: CC(=O)NS(=O)(=O)c1ccc(N2N=C(C(F)(F)F)CC2c2ccc(F)cc2F)cc1 (stereo not drawn) [Example 64]
Data returned: 172 to 174 °C

Data request: Give melting point for the following compound: Cc1ccc(C2CC(C(=O)O)=NN2c2ccc(S(N)(=O)=O)cc2)cc1 (stereo not drawn)
Data returned: 172 to 176 °C

Data request: Give reported melting point value for Cc1ccc(C2CC(C#N)=NN2c2ccc(S(C)(=O)=O)cc2)cc1 (stereo not drawn) [Example 43]
Data returned: 162 to 164 °C

Data request: Respond only with melting point recorded for CC(=O)NS(=O)(=O)c1ccc(N2N=C(C(F)(F)F)CC2c2ccc(F)cc2F)cc1 (stereo not drawn) [Example 8]
Data returned: 154 to 156 °C

Data request: Return melting point (reported value) for this compound: Cc1ccc(C2CC(C#N)=NN2c2ccc(S(C)(=O)=O)cc2)cc1 (stereo not drawn) [Example 7]
Data returned: 115 to 119 °C

Data request: Query melting point for Cc1ccc(C2CC(C(N)=O)=NN2c2ccc(S(N)(=O)=O)cc2)cc1 (stereo not drawn) [Example 41]
Data returned: 210 to 215 °C

Data request: Look up melting point of Cc1ccc(C2CC(C(F)(F)F)=NN2c2ccc(S(N)(=O)=O)cc2)cc1 (stereo not drawn) and report it.
Data returned: 140 to 143 °C
